Data credit: patent US20250213707A1

# System: polyclonal antibody ab6982
# experiment_description: Epitope mapping of polyclonal antibody ab6982 against cyclic peptides of Ad5 fiber and hexon (peptide array)
# Format: binding, rabbits
# assay_context: cyclic peptides of hexon protein (clusters 8-16)
antibody binding signal ranking from the microarray experiment of 30 or higher: yes (1). Under 30: no (0).

1. 256 (DNEDEVDEQAEQQ) [compound 256] :: yes (1)
2. 281 (VDIETPDTHISYM) [compound 281] :: yes (1)
3. 309 (FLVQMLANYNIGY) [compound 309] :: yes (1)
4. 300 (DSIGDRTRYF) [compound 300] :: yes (1)
5. 308 (IGYQGFY) [compound 308] :: yes (1)
6. 251 (EDEVDEQ) [compound 251] :: yes (1)
7. 212 (TALEINLEEEDDD) [compound 212] :: no (0)
8. 279 (IETPDTHISY) [compound 279] :: yes (1)
9. 248 (EEEDDDNEDE) [compound 248] :: yes (1)
10. 235 (EINLEEEDDDNED) [compound 235] :: no (0)
11. 209 (ATALEINLEEEDD) [compound 209] :: no (0)
12. 225 (EDDDNEDEVDEQA) [compound 225] :: no (0)

====

# System: polyclonal antibody ab6982
# experiment_description: Epitope mapping of polyclonal antibody ab6982 against cyclic peptides of Ad5 fiber and hexon (peptide array)
# Assay type: binding, rabbits
# assay_context: cyclic peptides of hexon protein (clusters 8-16)
antibody binding signal ranking from the microarray experiment reference
measured_quantity: antibody binding signal ranking from the microarray experiment

1. 269 (VDIETPDTHI) [compound 269] :: 046
2. 268 (IETPDTH) [compound 268] :: 045
3. 262 (AATALEINLE) [compound 262] :: 043
4. 247 (DDDNEDE) [compound 247] :: 096
5. 224 (DEVDEQA) [compound 224] :: 10
6. 301 (DSIGDRTRYFSMW) [compound 301] :: 100
7. 219 (AATALEINLEEED) [compound 219] :: 14
8. 294 (KDRMYSF) [compound 294] :: 143
9. 227 (EVDEQAE) [compound 227] :: 17
10. 250 (EDDDNEDEVD) [compound 250] :: 121
11. 290 (YSFFRNF) [compound 290] :: 104
12. 218 (LEINLEEEDDDNE) [compound 218] :: 13
13. 240 (DDDNEDEVDEQAE) [compound 240] :: 037
14. 210 (EAATALEINLEEE) [compound 210] :: 03
15. 214 (ALEINLEEED) [compound 214] :: 07
16. 234 (DEVDEQAEQQ) [compound 234] :: 26
17. 264 (EAATALEINL) [compound 264] :: 124
18. 291 (IPESYKDRMYSFF) [compound 291] :: 107
19. 303 (DRMYSFFRNF) [compound 303] :: 072
20. 283 (DIETPDT) [compound 283] :: 062
21. 292 (SYKDRMYSFF) [compound 292] :: 120
22. 285 (EDVDIETPDT) [compound 285] :: 070
23. 278 (EDVDIETPDTHIS) [compound 278] :: 056
24. 293 (ESYKDRMYSF) [compound 293] :: 127
25. 263 (EWDEAATALEINL) [compound 263] :: 112
26. 299 (GDRTRYF) [compound 299] :: 080
27. 229 (VDEQAEQ) [compound 229] :: 20
